System: brain serotonin metabolite, 5-hydroxyindole-3-acetic acid (5-HIAA)
Assay: Increasing effect on concentration of brain serotonin metabolite (5-HIAA)
Format: in vivo, mice (Std-ddY strain)
Details: Mus musculus, 2 h, two hours after treatment, 5-HIAA level of non-dosed animals=100%
Excerpt: Increasing effect on concentration of brain serotonin metabolite: A group of 5 male mice (Std-ddY strain, 25-30 g) was used for examining effect of the test compounds on concentration of a brain serotonin metabolite, 5-hydroxyindole-3-acetic acid (5-HIAA). Mice were killed by decapitation two hours after the treatment with the test compounds. Brains were quickly taken out, homogenized in 1N formic acid-acetone solution, and centrifuged in a refrigerated ultracentrifuge. […]
# maps each entry to its response vs control in vivo at 100 mg/kg

{"smiles_notation": "Fc1ccc(-c2nc(N3CCNCC3)nc3c2CCCC3)cc1", "system_tested": "brain serotonin metabolite, 5-hydroxyindole-3-acetic acid (5-HIAA)", "response vs control in vivo at 100 mg/kg, %": 154}
{"smiles_notation": "CN1CCN(c2nc3c(c(-c4ccc(F)cc4)n2)CCC3)CC1", "system_tested": "brain serotonin metabolite, 5-hydroxyindole-3-acetic acid (5-HIAA)", "response vs control in vivo at 100 mg/kg, %": 122}
{"smiles_notation": "Fc1ccc(-c2nc(N3CCNCC3)nc3c2CCC3)cc1", "system_tested": "brain serotonin metabolite, 5-hydroxyindole-3-acetic acid (5-HIAA)", "response vs control in vivo at 100 mg/kg, %": 150}
{"smiles_notation": "Fc1ccc(-c2nc(N3CCNCC3)nc3c2CCCCC3)cc1", "system_tested": "brain serotonin metabolite, 5-hydroxyindole-3-acetic acid (5-HIAA)", "response vs control in vivo at 100 mg/kg, %": 135}
{"smiles_notation": "CN1CCN(c2nc3c(c(-c4ccccc4)n2)CCCC3)CC1", "system_tested": "brain serotonin metabolite, 5-hydroxyindole-3-acetic acid (5-HIAA)", "response vs control in vivo at 100 mg/kg, %": 142}
{"smiles_notation": "CCN1CCN(c2nc3c(c(-c4ccc(F)cc4)n2)CCC3)CC1", "system_tested": "brain serotonin metabolite, 5-hydroxyindole-3-acetic acid (5-HIAA)", "response vs control in vivo at 100 mg/kg, %": 161}
{"smiles_notation": "CCN1CCN(c2nc3c(c(-c4ccc(F)cc4)n2)CCCC3)CC1", "system_tested": "brain serotonin metabolite, 5-hydroxyindole-3-acetic acid (5-HIAA)", "response vs control in vivo at 100 mg/kg, %": 149}
{"smiles_notation": "CN1CCN(c2nc3c(c(-c4ccc(F)cc4)n2)CCCC3)CC1", "system_tested": "brain serotonin metabolite, 5-hydroxyindole-3-acetic acid (5-HIAA)", "response vs control in vivo at 100 mg/kg, %": 156}
{"smiles_notation": "OCCN1CCN(c2nc3c(c(-c4ccc(F)cc4)n2)CCC3)CC1", "system_tested": "brain serotonin metabolite, 5-hydroxyindole-3-acetic acid (5-HIAA)", "response vs control in vivo at 100 mg/kg, %": 119}
{"smiles_notation": "OCCN1CCN(c2nc3c(c(-c4ccc(F)cc4)n2)CCCC3)CC1", "system_tested": "brain serotonin metabolite, 5-hydroxyindole-3-acetic acid (5-HIAA)", "response vs control in vivo at 100 mg/kg, %": 137}
{"smiles_notation": "OCCN1CCN(c2nc3c(c(-c4ccccc4)n2)CCCC3)CC1", "system_tested": "brain serotonin metabolite, 5-hydroxyindole-3-acetic acid (5-HIAA)", "response vs control in vivo at 100 mg/kg, %": 131}
